# Test system: 786-O
# method summary: Euclidean distance of Cell Painting phenotypic profile (signed KS, 77 features) to DMSO centroid (dimensionless distance); 5 or 10 uM (library dependent); higher = stronger phenotypic change vs DMSO (phenoactivity)
# assay setup: 48 h
Decision: Euclidean distance >= 0.7 yields 1, all other cases yield -1.

>  <compound>
CCCNC(=O)Nc1ccc(Oc2ncnc3cc(OC)c(OC)cc23)cc1Cl

>  <label class>
-1

$$$$

q: Please indicate if the recorded Euclidean distance for O=C(c1ccccc1)c1ccc2n1CCC2C(=O)O (stereo not given) meets or exceeds 0.7.
a: 1

q: Please indicate if the recorded Euclidean distance for CC[C@H](Nc1ncnc2[nH]cnc12)c1oc2ccccc2c(=O)c1-c1cccc(F)c1 [Tenalisib (RP6530)] meets or exceeds 0.7.
a: 1

Values compiled from the supplement of paper PMC10127200.
